Experiment: chemical genetic growth profiling, strain panel (AID 1159580);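 note: tested at 20 µM; growth read once vehicle control cultures reached saturation at 30 °C; 1 = growth at the plate median or of vehicle wells; lower values mean less growth of the strain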
Details: S. cerevisiae deletion strains, growth OD, locus YIL125W, strain kgd1, hits give low values
In all, about 5,500 compounds went through this assay and about 2,000 (36%) were called active. Inconclusive results (about 18%) are left out. The list shows a part of the results.
Known normalized growth of a selection of compounds
REPORTED_PROPERTY: normalized growth

> print(dat)
                                    compound  reported.property  recorded.number
 1  COC(=O)[C@H]1[C@H]2C[C@@H]3c4[nH]c5cc(OC)ccc5c4CCN3C[C@H]2C[C@@H](OC(=O)c2cc(OC)c(OC)c(OC)c2)[C@@H]1OC  normalized growth                1
 2                   COc1cc(C(=O)O)cc(OC)c1O  normalized growth            0.987
 3     CCn1cc(C(=O)O)c(=O)c2cnc(N3CCCC3)nc21  normalized growth             1.01
 4                       CCOC(=O)c1ccc(N)cc1  normalized growth            0.991
 5  CC12CCCC(O)(C1)C1CC(C)(C)C1CC2 (configuration not stated)  normalized growth             1.01
 6  C=CC1=C(C)/C(=C/c2[nH]c(Cc3[nH]c(/C=C4\NC(=O)C(C)=C4C=C)c(C)c3CCC(=O)O)c(CCC(=O)O)c2C)NC1=O  normalized growth             1.05
 7  CC[C@]12CCCN3CCc4c(n(c5ccccc45)C(=O)C1)[C@@H]32  normalized growth            0.989
 8  COc1ccc2c(c1O)-c1c(OC)c(OC)cc3c1[C@H](C2)N(C)CC3  normalized growth             1.01
 9                        CCOP(=S)(OCC)SCSCC  normalized growth                1
10  COc1cc2c(cc1O)CC1c3c(cc(O)c(OC)c3-2)CCN1C (configuration not stated)  normalized growth            0.986
11                       CCOP(=S)(OCC)SCCSCC  normalized growth            0.975
12                   O=C(O)c1cc(O)c(O)c(O)c1  normalized growth             1.02
13                Cc1ccc(C(C)C)cc2c(C)ccc1-2  normalized growth             1.01
14  CN1CCc2cccc3c2C1Cc1ccc(O)c(O)c1-3 (configuration not stated)  normalized growth            0.989
15  CCCN(CCC)C(=O)C(CCC(=O)O)NC(=O)c1ccccc1 (configuration not stated)  normalized growth            0.985
16                            NC(=O)c1cnccn1  normalized growth            0.999
17  CC1(C)CC2C1CCC1(C)OC1CCC2(C)O (configuration not stated)  normalized growth             1.01

* * *

Assay: chemical genetic growth profiling, strain panel (AID 1159580);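 note: tested at 20 µM; growth read once vehicle control cultures reached saturation at 30 °C; 1 = growth at the plate median or of vehicle wells; lower values mean less growth of the strain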
Details: S. cerevisiae deletion strains, growth OD, locus YKL101W, strain HSL1, hits give low values
Hit rate of the full screen: of about 5,500 compounds, about 2,000 (36%) were called active. About 18% were inconclusive and are not listed. The list shows a part of the results.
Quick list: normalized growth per entry.
REPORTED_PROPERTY: normalized growth

> print(dat)
                                    compound  reported.property  recorded.number
 1  C/C(=N/OC(=O)Nc1ccc(Cl)cc1)c1ccc2c(c1)CCO2  normalized growth             0.92
 2  CCc1cc2c(cc1-c1csc(C/C(N)=N\O)n1)C(C)(C)CCC2(C)C  normalized growth            0.701
 3       CCOC(=O)NC(=S)NC12CC3CC(CC(C3)C1)C2  normalized growth            0.923
 4  Cc1cc(C(=O)O/N=C(/N)c2ccc(C(C)(C)C)cc2)no1  normalized growth             1.01
 5  Cc1cc(C(=O)O/N=C(/N)c2ccc([N+](=O)[O-])o2)no1  normalized growth             0.83
 6  O=C(NCc1ccco1)c1csc(C2COc3ccccc3O2)n1 (stereo not given)  normalized growth            0.873
 7  COc1cc(C(=O)Oc2c(Cl)cc(Cl)cc2C=Nc2ccc([N+](=O)[O-])cc2C#N)cc(OC)c1OC  normalized growth            0.654
 8  Nc1cc(-c2ccc(OC(F)(F)F)cc2)nn1-c1ccc(Cl)c(Cl)c1  normalized growth            0.268
 9  COc1cc(N=Cc2cc(Cl)cc(Cl)c2OS(=O)(=O)c2ccc(C)cc2)c(OC)cc1Cl  normalized growth            0.902
10    O=C(Nc1cccc(C(F)(F)F)c1)Oc1ccc(F)cc1Cl  normalized growth            0.983
11  CSc1c(C#N)c(-c2ccc(Cl)cc2)nn1C(=O)c1ccccc1Cl  normalized growth            0.933
12  COc1cc(N=Cc2cc(Cl)cc(Cl)c2OC(=O)c2cc(OC)c(OC)c(OC)c2)c(OC)cc1Cl  normalized growth            0.346
13        O=C(CCSc1cccs1)Nc1cccc(C(F)(F)F)c1  normalized growth            0.911
14  CC12CC[C@@H](O)CC1=CC[C@@H]1C2CCC2(C)C(=O)CC[C@@H]12 (stereo not given in full)  normalized growth            0.913
15  CC(C)(O)C#Cc1ccc(/C=N\Nc2c(Cl)cc(Cl)cc2Cl)cc1  normalized growth            0.765
